PROCEDURE_SUMMARY: NCI Yeast Anticancer Drug Screen. Data for the sgs1 mgt1 strain (AID 161);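 also: 0% = growth of cultures given vehicle only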
EXPERIMENTAL_PARAMETERS: S. cerevisiae sgs1 mgt1 strain, at 5.0 µM (retest, dose inferred, filed as 0.5), active compounds read high
About 79,000 compounds went through this panel and 15% of them were active in at least one assay; those are over-represented in the sample as a whole.
PROPERTY: growth inhibition (%)
Return type: number; implicit unit %.

Tell me its growth inhibition given CCOC(=O)COc1c(OC)cc(C2C3=C(COC3=O)Oc3cc4c(cc32)OCO4)cc1OC (configuration not stated) as the entry. -9

Tell me its growth inhibition given COC1=C(OC)C(=O)C(Sc2ccc3ccccc3c2)=CC1=O as the entry. 5

Tell me its growth inhibition given COc1cc(C2c3cc4c(cc3OC(OC(C)=O)C2C)OCO4)cc(OC)c1OC (configuration not stated) as the entry. -8

Tell me its growth inhibition given C/C(=N\Nc1ccc([N+](=O)[O-])cc1[N+](=O)[O-])c1sc(-n2nc(-c3ccccc3)cc2-c2ccccc2)nc1C as the entry. 11

Tell me its growth inhibition given CN(C)c1ccc2c(SCC(=O)OCC(=O)[C@@]3(O)CC[C@H]4[C@@H]5CCC6=CC(=O)C=C[C@]6(C)[C@H]5C(=O)C[C@@]43C)c3ccc(N(C)C)cc3nc2c1 as the entry. 12

Tell me its growth inhibition given Oc1ccc(SCc2ccc(NCc3ccccc3)cc2)cc1 as the entry. 42

Tell me its growth inhibition given COc1cccc2c1C(=O)c1c(O)c3c(c(O)c1C2=O)CC(O)(C(O)CO)CC3OC1CC(N2CCOCC2)C(O)C(C)O1 (configuration not stated) as the entry. 22

Tell me its growth inhibition given O=C(COC(=O)c1ccccc1)c1ccc(Br)cc1 as the entry. 58

Tell me its growth inhibition given c1ccc2[nH]c(-c3cscn3)nc2c1 as the entry. -3

Tell me its growth inhibition given CN(C)c1ccc(N=Nc2ccncc2)cc1 as the entry. -19

Tell me its growth inhibition given Cc1nc2ccc(N=NN(C)C)cc2[nH]1 as the entry. -6

Tell me its growth inhibition given CCCCCCOC(=O)NCCOC(=O)Nc1ccccc1 as the entry. 12

Tell me its growth inhibition given COC(=O)C1(C)CCc2c(ccc3ccccc23)C1=O (configuration not stated) as the entry. -5

Tell me its growth inhibition given Cc1cccc2c1nc1ccc(Cl)cc1[n+]2C as the entry. 26

Tell me its growth inhibition given S=c1[nH]c2cc3ccccc3cc2[nH]1 as the entry. -5

Tell me its growth inhibition given Cn1c(-c2ccc(/C=N\N3CCN(/N=C/c4ccc(-c5c[n+]6ccccc6n5C)cc4)CC3)cc2)c[n+]2ccccc12 as the entry. 19

Tell me its growth inhibition given CC(C)OC(=O)c1ccc(CCc2cc(O)c(Br)cc2O)cc1 as the entry. 31

====

PROCEDURE_SUMMARY: NCI Yeast Anticancer Drug Screen. Data for the rad50EPP+ strain (AID 151);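 also: 0% = growth of vehicle-treated control cultures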
EXPERIMENTAL_PARAMETERS: S. cerevisiae rad50 mutant strain, at 1.2 µM, active compounds read high
About 79,000 compounds went through this panel and 15% of them were active in at least one assay; those are over-represented in the sample as a whole. The source made the active and inactive calls. No stated cut-off is given here; in the data, active means growth inhibition above about 70%; inactive means the rest.
PROPERTY: growth inhibition

Tell me its growth inhibition given OC1(c2ccccc2)CCCc2ccc(Cl)cc21 (configuration not stated) as the entry. 3% (inactive)

Tell me its growth inhibition given O=C1C(Br)=C(c2ccccc2)O/C1=C/C(=O)c1ccc(Br)cc1 as the entry. 9% (inactive)

Tell me its growth inhibition given c1ccc2cc(NCNc3ccc4ccccc4c3)ccc2c1 as the entry. 0% (inactive)

Tell me its growth inhibition given COc1cc(CSc2ccc(O)cc2)cc(O)c1O as the entry. -3% (inactive)

Tell me its growth inhibition given O=C(/C=C/c1cc(Cl)cc(Cl)c1O)c1cccc(O)c1 as the entry. 66% (inactive)

Tell me its growth inhibition given CCCCOCn1c(=O)[nH]c(=O)c2cc(Br)ccc21 as the entry. -59% (inactive)

Tell me its growth inhibition given CCCCCCCCCCCC1N=C(N)NC(CCCO)=C1C(=O)OC (configuration not stated) as the entry. 32% (inactive)

====

PROCEDURE_SUMMARY: NCI Yeast Anticancer Drug Screen. Data for the rad50EPP+ strain (AID 151);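 also: 0% = growth of vehicle-treated control cultures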
EXPERIMENTAL_PARAMETERS: S. cerevisiae rad50 mutant strain, at 3.7 µM, active compounds read high
Description: Growth inhibition of yeast strains with defined genetic alterations is measured as a screen for potential anti-cancer activity. Selected strains with alterations in DNA damage repair or cell cycle control were exposed to compounds and growth inhibition was measured relative to vehicle treated controls. The strain used in this assay is rad50EPP+
About 79,000 compounds went through this panel and 15% of them were active in at least one assay; those are over-represented in the sample as a whole.
PROPERTY: growth inhibition (%)
Return type: number; implicit unit %.

Tell me its growth inhibition given Cc1sc2ccc3ccccc3c2[n+]1C as the entry. -10

Tell me its growth inhibition given COc1ccc(NC(=O)CC2SC(=Nc3ccccc3C)NC2=O)c([N+](=O)[O-])c1 (stereo not given) as the entry. -2

Tell me its growth inhibition given Oc1ccc2ccccc2c1CCc1c(O)ccc2ccccc12 as the entry. 70

Tell me its growth inhibition given CCCC/C([O-])=C1/C(=O)N(c2ccccc2)N=C1C.CCCC/C([O-])=C1/C(=O)N(c2ccccc2)N=C1C.[Cu+2] as the entry. 0

Tell me its growth inhibition given CCCCC(CC)C(=O)[O][Sn]([CH2]CCC)([CH2]CCC)[O]C(=O)C(CC)CCCC (stereo not given) as the entry. 6

Tell me its growth inhibition given CCCC(=O)Oc1c(C)cc([N+](=O)[O-])cc1[N+](=O)[O-] as the entry. 77

Tell me its growth inhibition given Cc1cc(C)nc(NS(=O)(=O)c2ccc(Nc3c4ccccc4nc4c(C(=O)NCCO)cccc34)cc2)n1 as the entry. 0

Tell me its growth inhibition given Cc1ccc2nc(-c3cccc([N+](=O)[O-])c3)oc(=O)c2c1 as the entry. 12

Tell me its growth inhibition given CC[N+]1(C)CCC(O)(c2ccc(OC)cc2)C(C(=O)c2ccc(OC)cc2)C1 (stereo not given) as the entry. -32

Tell me its growth inhibition given COc1cccc(/C=N/C(/N=C/c2cccc(OC)c2O)c2cccc(OC)c2O)c1O as the entry. 15

====

PROCEDURE_SUMMARY: NCI Yeast Anticancer Drug Screen. Data for the rad18 strain (AID 177)
EXPERIMENTAL_PARAMETERS: S. cerevisiae rad18 mutant growth inhibition; at 3.7 µM
The panel holds about 79,000 compounds, 15% with a hit somewhere; the sample as a whole holds those more often. Activity calls are given as the source filed them. Cut-off read from the data, not from the text of the source: active = growth inhibition above about 70%; inactive = the rest.
Give one outcome, nothing more. List: active, inactive

Please let me know the test result on file for O=[N+]([O-])c1cc(S(=O)(=O)Nc2ccccc2)ccc1Nc1ccccc1 . inactive

Please let me know the test result on file for COC1=C(OC)C(=O)C(Sc2ccc3ccccc3c2)=CC1=O . inactive

Please let me know the test result on file for Cc1cc(N(CCOS(C)(=O)=O)CCOS(C)(=O)=O)ccc1C=Nc1ccc(-c2csc(-c3ccccc3)n2)c(Cl)c1 . active

Please let me know the test result on file for O=C1C=C(Cl)C(=O)N1c1cccc(Cl)c1 . inactive

Please let me know the test result on file for CCCCCCOC(=O)NCCOC(=O)Nc1ccccc1 . inactive

Please let me know the test result on file for Cc1nc(-c2cc3cc([N+](=O)[O-])ccc3oc2=O)cs1 . inactive

Please let me know the test result on file for O=C(NNc1ccccc1)C(O)C(O)C(O)C(O)C(O)CO (centres undefined) . inactive

Please let me know the test result on file for CCc1ccc2c(c1)N(CC(C)CN(C)C)c1ccccc1S2 (centres undefined) . inactive

Please let me know the test result on file for COc1cc(O)c2c(c1O)C(=O)c1cc(C)ncc1C2=O . inactive

Please let me know the test result on file for COc1ccc(NC(=O)CC2SC(=Nc3ccccc3C)NC2=O)c([N+](=O)[O-])c1 (centres undefined) . inactive

Please let me know the test result on file for CC(C)CCCC(C)C1CCC2C3CCC4=CC(=O)/C(=C\O)CC4(C)C3CCC12C (centres undefined) . inactive

Please let me know the test result on file for COc1cc(/C=N/Nc2nnc3c4ccccc4c4ncccc4c3n2)cc(OC)c1OC . inactive

Please let me know the test result on file for COc1cccc(/C=N/C(/N=C/c2cccc(OC)c2O)c2cccc(OC)c2O)c1O . inactive

Please let me know the test result on file for CCCC(O)C1CC(C(C)C)CCC1C (centres undefined) . inactive

====

PROCEDURE_SUMMARY: NCI Yeast Anticancer Drug Screen. Data for the mec2-1 strain (AID 157)
EXPERIMENTAL_PARAMETERS: S. cerevisiae mec2-1 strain, at 100.0 µM, active compounds read high
Compounds without any hit were thinned out: in the full panel of roughly 79,000, 15% have a hit.
PROPERTY: growth inhibition (%)
Return type: number; implicit unit %.

Tell me its growth inhibition given Nc1nc2ccc(NCc3ccc(C(=O)NC(CCC(=O)O)C(=O)O)cc3)cc2c(=O)[nH]1 (stereo not drawn) as the entry. 97

Tell me its growth inhibition given O=[N+]([O-])c1ccc(N/N=C/Cc2ccccc2)c([N+](=O)[O-])c1 as the entry. 4

Tell me its growth inhibition given O=C1CSC(c2cccc(Cl)c2)N1c1ccc(-c2ccc(-n3c(-c4ccccc4)nc4ccccc4c3=O)cc2)cc1 (stereo not drawn) as the entry. 16
